So I've got a bunch of compounds here, and I need their IC50 values.
Biological target: recombinant human PDK1 (Homo sapiens)
Construct: containing amino acids 51-556 of the human PDK1 enzyme; made in house; host or cells: Sf9 insect cells
Sequence (O15530 51-556): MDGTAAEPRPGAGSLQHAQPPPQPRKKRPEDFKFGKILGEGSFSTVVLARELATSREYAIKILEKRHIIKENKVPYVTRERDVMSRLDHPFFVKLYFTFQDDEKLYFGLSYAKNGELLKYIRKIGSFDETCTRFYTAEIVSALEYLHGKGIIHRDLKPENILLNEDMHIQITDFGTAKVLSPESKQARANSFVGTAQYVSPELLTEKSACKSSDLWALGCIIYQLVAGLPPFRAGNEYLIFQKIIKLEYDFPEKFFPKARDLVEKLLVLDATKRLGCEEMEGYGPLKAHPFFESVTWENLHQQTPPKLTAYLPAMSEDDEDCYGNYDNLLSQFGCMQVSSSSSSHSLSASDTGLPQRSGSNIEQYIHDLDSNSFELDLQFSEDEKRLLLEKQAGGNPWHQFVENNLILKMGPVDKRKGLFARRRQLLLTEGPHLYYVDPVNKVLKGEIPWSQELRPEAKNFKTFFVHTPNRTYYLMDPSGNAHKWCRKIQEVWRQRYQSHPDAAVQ
Assay: PDK1 IMAP fluorescence polarization assay (inhibition of peptide substrate phosphorylation)
Assay type: biochemical
Settings: Table 6; 10 nM PDK1 enzyme, 100 nM peptide substrate, 100 nM PIFtide, 2.5 uM ATP, 1.5 hours

# annotated cases, reported IC50 shown
>>> result("N[C@@H]1CCCN(c2c(F)cccc2NC(=O)c2nc(-c3cnn(Cc4cccs4)c3)c[nH]2)C1")
"0.051 to 0.25 µM"
>>> result("N[C@@H]1CCCN(c2c(F)cccc2NC(=O)c2nc(C3=CCOCC3)c[nH]2)C1")
"0.251 to 1 µM"
>>> result("Cc1cc(-c2c[nH]c(C(=O)Nc3cccc(F)c3N3CCC(C(=O)N4CC[C@H](F)C4)CC3)n2)ccn1")
"1 to 5 µM"

Now let's try a different one.
// query Name the value of IC50 reported for NCC1CCN(c2c(F)cccc2NC(=O)c2nc(-c3cccc(S(N)(=O)=O)c3)c[nH]2)CC1 when tested on recombinant human PDK1 (Homo sapiens).
// result 0.051 to 0.25 µM
